The origin of these recorded values is PubChem BioAssay.

# Test system: TRPC4 beta (transient receptor potential cation channel C4), mouse
# assayComment: potentiation of DAMGO EC20 TRPC4 response – cell-based, Fluo-4, HEK293 TRPC4beta/mu-opioid, confirmation (AID 2555)
# conditionSummary: DAMGO EC20, Fluo-4 calcium flux, at 10 µM
The source made the active and inactive calls.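 Rule for the calls: active = primary screen hit whose calcium fluorescence ratio, in both repeats, exceeds the weak agonist control mean by 3 SD; inactive = the rest.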
Assign a class; possible classes are TRUE = active, FALSE = inactive

compound | assignedClass
OCc1ccccc1CNCc1ccccc1 | FALSE
COc1ccc(-c2nn(-c3ccccc3C)cc2CNCc2cccnc2)cc1F | FALSE
CSCCNC(=O)c1ccc(OC2CCN(CCc3ccccc3)CC2)cc1 | FALSE
CCOc1ccccc1C(=O)NCCc1cnc[nH]1 | TRUE

Task item: Name the outcome recorded for CC(C)(c1ccccc1)c1ccc(OCCCNCCO)cc1 in the assay.
Reply: FALSE

Task item: Name the outcome recorded for COc1cc(CNC2CCCC2)cc(Cl)c1OCc1ccc(F)cc1 in the assay.
Reply: FALSE

Task item: Name the outcome recorded for CCOC(=O)c1ccc(NC(=O)NCCc2cnc[nH]2)cc1 in the assay.
Reply: FALSE

Task item: Name the outcome recorded for COc1cc(OC)cc(C(=O)NC(=S)NNC(=O)Cc2cccs2)c1 in the assay.
Reply: FALSE

----------
# targetEntity: Short transient receptor potential channel 6 (Mus musculus)
# assayComment: TRPC6 blockade by TRPC4 inhibitor hits – cell-based, HEK293, membrane potential dye, duplicate, selectivity assay for TRPC4 inhibitor project, confirmation (AID 434948)
# conditionSummary: HEK293 TRPC6, membrane potential dye fluorescence, at 10 µM, stimulated with maximal-effect acetylcholine
The source made the active and inactive calls.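 The calls were made as follows: active = active in primary screen and both duplicates, each dropping signal beyond three positive-control SD with fluorescence still positive; inactive = the rest.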
Assign a class; possible classes are yes (active), no (inactive)

Some entries whose results are on file:
compound | assignedClass
Cc1cccc(C)c1OCC(=O)N1CC2(C)CC1CC(C)(C)C2 (stereo not drawn) | no
CCOC(=O)C1(CCOC)CCN(C(C)CCc2ccc(OC)cc2)CC1 (stereo not drawn) | no
CC(Nc1nc(N2CCNCC2)nc2ccccc12)c1ccccc1 (stereo not drawn) | no
COCCNC(=O)/C(C#N)=C/c1cc(C(C)C)c(OC)cc1C | no
CCOc1c(Cl)cc(CNCC(O)c2ccccc2)cc1OC (stereo not drawn) | no
Cn1c(NCc2ccccc2O)nc2ccccc21 | no

Task item: Name the outcome recorded for Cc1onc(-c2ccccc2)c1C(=O)NNC(=S)NC(=O)c1ccc2c(c1)OCO2 in the assay.
Reply: no

Task item: Name the outcome recorded for COc1cccc(Oc2cncnc2-c2ccc(OC)cc2O)c1 in the assay.
Reply: no

Task item: Name the outcome recorded for Cc1c(CN2CCC(n3nccc3NC(=O)CCc3ccccc3)CC2)cnn1C in the assay.
Reply: no

Task item: Name the outcome recorded for C#CC[N+]1(CC#Cc2cccc3ccccc23)CCOCC1 in the assay.
Reply: no

Task item: Name the outcome recorded for C1CCN(c2nc(N3CCCCC3)nc(N3CCNCC3)n2)CC1 in the assay.
Reply: no

Task item: Name the outcome recorded for O=[N+]([O-])c1ccc(CN2CCN(Cc3c[nH]c4ccccc34)CC2)cc1 in the assay.
Reply: no

Task item: Name the outcome recorded for O=C(NC(=S)NNC(=O)c1cccs1)c1ccc(Br)o1 in the assay.
Reply: no

Task item: Name the outcome recorded for O=C1NCN(c2ccccc2)C12CCN(CCCC(c1ccc(F)cc1)c1ccc(F)cc1)CC2 in the assay.
Reply: no

Task item: Name the outcome recorded for COc1cc(S(=O)(=O)N2CCC(N3CCCCC3)CC2)ccc1-n1cnnn1 in the assay.
Reply: no

Task item: Name the outcome recorded for CCOC(=O)c1c(NC(=O)C2CCCCC2C(=O)O)sc2c1CCCCC2 (stereo not drawn) in the assay.
Reply: no
